The entries below come with measured koff values attached.
test-target: T1, Dog serum albumin (dog, UniProt P49822 25-608)
T1 construct: bought; immobilised on a CM5 chip by amine coupling; also called Dog SA
experiment-notes: SPR, SA on chip, VHH 300 nM, 25 C
Your answer should be a plain number; it is taken to be in s⁻¹.

Examples with answers:
binder="VHH moiety 4 (MC6.1C80.43) (VHH) VHH: EVQLLESGGGLVQPGGSLRLSCAASGRYIDETAVAWFRQAPGKGREFVAGIGGGVDITYYADSVKGRFTISRDNSKNTLYLQMNSLRPEDTAVYYCAARPGRPLITSKVADLYPYWGQGTLVTVSS" measurement_kind=koff test_value=0.0017
binder="VHH moiety 22 (MC6.1C22-P103S) (VHH) VHH: EVQLLESGGGLVQPGGSLRLSCAASGRYIDETAVAWFRQAPGKEREFVAGIGGGVDITYYADSVKGRFTISRDNSKNTLYLQMNSLRPEDTAVYYCAARPGRSLITSKVADLYPYWGQGTLVTVSS" measurement_kind=koff test_value=0.0074
binder="VHH moiety 40 (MC6.1C95.43) (VHH) VHH: EVQLLESGGGLVQPGGSLRLSCAASGRYIDETAVAWFRQAPGKGREFVAGIGGGVDITYYADSVKGRFTISRDNSKNTLYLQMNSLRPEDTAVYYCGTRPGRPLITSKVADLYPYWGQGTLVTVSS" measurement_kind=koff test_value=0.0021
binder="VHH moiety 9 (MC6.1C22-R27A) (VHH) VHH: EVQLLESGGGLVQPGGSLRLSCAASGAYIDETAVAWFRQAPGKEREFVAGIGGGVDITYYADSVKGRFTISRDNSKNTLYLQMNSLRPEDTAVYYCAARPGRPLITSKVADLYPYWGQGTLVTVSS" measurement_kind=koff test_value=0.011
binder="VHH moiety 17 (MC6.1C22-R102K) (VHH) VHH: EVQLLESGGGLVQPGGSLRLSCAASGRYIDETAVAWFRQAPGKEREFVAGIGGGVDITYYADSVKGRFTISRDNSKNTLYLQMNSLRPEDTAVYYCAARPGKPLITSKVADLYPYWGQGTLVTVSS" measurement_kind=koff test_value=0.0082

Moving on to the next binder.
Query: If you can, please state the reported koff value of VHH moiety 8 (MC6.1C22-G26Y) (VHH) VHH: EVQLLESGGGLVQPGGSLRLSCAASYRYIDETAVAWFRQAPGKEREFVAGIGGGVDITYYADSVKGRFTISRDNSKNTLYLQMNSLRPEDTAVYYCAARPGRPLITSKVADLYPYWGQGTLVTVSS .
Response: 0.0022

Data provenance: patent US20240316154A1
